Source listed as patent US8877741B2.

Biological target: human ACC2 (Homo sapiens (Human))
Experiment: ACC2 assay, spectrophotometric 384 well assay (NADH-linked kinetic method)
Assay type: biochemical
Conditions: human ACC2 construct lacking the 128 N-terminal amino acids; coupled lactate dehydrogenase/pyruvate kinase reaction, 340 nm, 25° C.
Parameter Measured: pIC50
Give only the number. pIC50 is defined as minus log10 of concentration in molar units.

Use the examples below as a reference point.
>>> print(df.to_string())
                                   compound  endpoint_value
0  CCN(C)c1cccc(N2CC[C@@H](Oc3ccc([C@H](C)NC(C)=O)cc3)C2)n1 [Example 10.30]            6.81
1  COc1cc(OCC2CC2(F)F)cnc1N1CCC(Oc2ccc([C@H](C)NC(C)=O)cc2)C1 (stereo partly shown) [Example 1.81]            6.37
2  CCOc1nccc(N2CC[C@@H](Oc3ccc([C@H](C)NC(C)=O)cc3)C2)c1OC [Example 1.95]            7.09
3  CC(=O)N[C@@H](C)c1ccc(O[C@@H]2CCN(c3cccc(N(C)CC(C)O)n3)C2)cc1 (stereo partly shown) [Example 10.35]            6.07
4  C[C@H](NC(=O)C1(C(F)(F)F)CC1)c1ccc(OC2CCN(c3cccc(C(F)(F)F)n3)C2)cc1 (stereo partly shown) [Example 2.37]            6.61
5  CCC(=O)N[C@@H](C)c1ccc(OC2CCN(c3ccnc(OCC4CC4)c3)C2)cc1 (stereo partly shown) [Example 2.66]            7.30

(Q) Report pIC50 for CC(=O)N[C@@H](C)c1ccc(O[C@@H]2CCN(c3cccc(N4CCCCC4)n3)C2)cc1 [Example 10.4] please.
(A) 6.58

(Q) Likewise for CCCOc1cnc(N2CCC(Oc3ccc([C@H](C)NC(C)=O)cc3)C2)c(C)c1 (stereo partly shown) [Example 1.39] ?
(A) 6.42

(Q) Likewise for C[C@H](NC(=O)C(C)(C)F)c1ccc(OC2CCN(c3ccnc(OCC(F)F)c3)C2)cc1 (stereo partly shown) [Example 2.109] ?
(A) 6.34

(Q) Likewise for CC(=O)N[C@@H](C)c1ccc(OC2CCN(c3ccnc(OCC4CC4(F)F)c3)C2)cc1 (stereo partly shown) [Example 1.19] ?
(A) 7.27

====

Target: human ACC2 (Homo sapiens (Human), UniProt O00763)
Sequence (O00763 129-2458): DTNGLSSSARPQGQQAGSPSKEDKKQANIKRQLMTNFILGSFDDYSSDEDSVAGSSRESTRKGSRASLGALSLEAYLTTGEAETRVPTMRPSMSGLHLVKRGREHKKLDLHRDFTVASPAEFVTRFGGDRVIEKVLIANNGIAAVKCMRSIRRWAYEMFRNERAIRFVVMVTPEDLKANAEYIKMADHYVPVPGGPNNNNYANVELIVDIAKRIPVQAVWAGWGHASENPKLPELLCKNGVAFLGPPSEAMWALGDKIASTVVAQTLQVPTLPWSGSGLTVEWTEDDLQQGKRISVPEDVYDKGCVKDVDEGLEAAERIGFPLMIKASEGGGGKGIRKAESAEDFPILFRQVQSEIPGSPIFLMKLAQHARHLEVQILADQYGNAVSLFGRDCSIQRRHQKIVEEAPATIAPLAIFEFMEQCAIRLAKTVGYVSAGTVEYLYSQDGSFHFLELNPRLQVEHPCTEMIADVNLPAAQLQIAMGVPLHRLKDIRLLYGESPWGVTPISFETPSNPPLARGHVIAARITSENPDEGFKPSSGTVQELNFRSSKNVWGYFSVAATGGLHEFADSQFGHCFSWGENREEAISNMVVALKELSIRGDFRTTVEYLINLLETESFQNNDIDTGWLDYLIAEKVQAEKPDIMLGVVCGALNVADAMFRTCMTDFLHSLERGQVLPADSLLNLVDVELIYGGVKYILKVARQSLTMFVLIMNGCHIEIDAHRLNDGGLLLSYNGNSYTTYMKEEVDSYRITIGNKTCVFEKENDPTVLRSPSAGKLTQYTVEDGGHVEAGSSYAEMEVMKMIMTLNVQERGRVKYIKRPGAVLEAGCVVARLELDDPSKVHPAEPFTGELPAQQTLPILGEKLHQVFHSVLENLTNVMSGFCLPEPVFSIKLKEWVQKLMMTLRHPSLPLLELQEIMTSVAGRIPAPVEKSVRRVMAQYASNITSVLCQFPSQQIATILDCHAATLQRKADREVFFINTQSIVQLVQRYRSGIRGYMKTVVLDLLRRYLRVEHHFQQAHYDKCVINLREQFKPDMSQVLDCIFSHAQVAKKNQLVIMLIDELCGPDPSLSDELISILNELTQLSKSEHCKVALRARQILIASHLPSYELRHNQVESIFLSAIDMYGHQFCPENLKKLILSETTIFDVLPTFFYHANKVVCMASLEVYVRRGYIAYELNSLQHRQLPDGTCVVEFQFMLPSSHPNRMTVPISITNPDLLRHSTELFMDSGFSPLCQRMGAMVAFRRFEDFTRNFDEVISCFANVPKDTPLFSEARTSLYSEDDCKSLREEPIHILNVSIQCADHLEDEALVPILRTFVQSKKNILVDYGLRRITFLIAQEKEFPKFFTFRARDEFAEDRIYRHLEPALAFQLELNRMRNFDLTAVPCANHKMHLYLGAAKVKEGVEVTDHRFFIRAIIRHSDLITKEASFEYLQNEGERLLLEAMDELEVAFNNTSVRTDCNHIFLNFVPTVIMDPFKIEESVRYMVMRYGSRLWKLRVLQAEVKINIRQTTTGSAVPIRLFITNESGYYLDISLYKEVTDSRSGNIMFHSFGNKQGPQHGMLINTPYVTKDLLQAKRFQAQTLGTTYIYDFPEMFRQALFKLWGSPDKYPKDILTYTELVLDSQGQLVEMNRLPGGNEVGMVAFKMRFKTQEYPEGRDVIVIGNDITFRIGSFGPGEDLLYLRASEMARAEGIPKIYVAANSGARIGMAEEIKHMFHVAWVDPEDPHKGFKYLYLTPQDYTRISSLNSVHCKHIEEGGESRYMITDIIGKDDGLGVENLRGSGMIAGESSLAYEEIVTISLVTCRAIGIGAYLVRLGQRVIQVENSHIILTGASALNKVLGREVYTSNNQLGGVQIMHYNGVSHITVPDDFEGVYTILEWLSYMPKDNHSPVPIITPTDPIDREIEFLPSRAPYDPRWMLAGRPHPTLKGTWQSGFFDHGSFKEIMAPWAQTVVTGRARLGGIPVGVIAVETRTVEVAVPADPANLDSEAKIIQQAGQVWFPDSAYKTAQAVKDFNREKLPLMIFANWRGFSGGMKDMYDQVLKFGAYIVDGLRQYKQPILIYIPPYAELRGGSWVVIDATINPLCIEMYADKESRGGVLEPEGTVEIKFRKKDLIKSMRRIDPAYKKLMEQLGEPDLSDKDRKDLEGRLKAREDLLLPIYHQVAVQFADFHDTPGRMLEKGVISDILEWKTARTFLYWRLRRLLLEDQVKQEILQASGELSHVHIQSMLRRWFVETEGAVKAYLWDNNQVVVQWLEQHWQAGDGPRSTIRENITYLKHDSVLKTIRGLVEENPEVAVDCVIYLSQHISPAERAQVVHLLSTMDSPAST
Experiment: ACC2 assay, spectrophotometric 384 well assay (NADH-linked kinetic method)
Assay type: biochemical
Conditions: human ACC2 construct lacking the 128 N-terminal amino acids; coupled lactate dehydrogenase/pyruvate kinase reaction, 340 nm, 25° C.
Parameter Measured: IC50 (nM)
Only the number, expressed in nM, is required.

Use the examples below as a reference point.
>>> df
                                   molecule  endpoint_value
0  CC(=O)N[C@@H](C)c1ccc(O[C@@H]2CCN(c3ccnc(OCC4CC4C#N)c3)C2)cc1 (stereo partly shown) [Example 9.24]              55
1  C[C@H](NC(=O)C(F)F)c1ccc(OC2CCN(c3ccnc(OCC4CC4)c3)C2)cc1 (stereo partly shown) [Example 2.81]              35
2  CC(C)Oc1cc(N2CCC(Oc3ccc([C@H](C)NC(=O)c4ccns4)cc3)C2)ccn1 (stereo partly shown) [Example 2.6]             145
3  CC(C)Oc1cc(N2CCC(Oc3ccc([C@H](C)NC(=O)N(C)C)cc3)C2)ccn1 (stereo partly shown) [Example 3.2]              65
4  COCCOc1cc(N2CC[C@@H](Oc3ccc([C@H](C)NC(C)=O)cc3)C2)ccn1 [Example 9.18]             482

(Q) Report IC50 for CC(=O)N[C@@H](C)c1ccc(OC2CCN(c3ccc(OCCC(F)(F)F)cn3)C2)cc1 (stereo partly shown) [Example 1.29] please.
(A) 130

(Q) Likewise for CC(=O)N[C@@H](C)c1ccc(O[C@@H]2CCN(c3cccc(N4CCC(C)(C)C4)n3)C2)cc1 [Example 10.48] ?
(A) 256

====

Measured IC50 (human ACC2 (Homo sapiens (Human)))
Only the number, expressed in nM, is required.

Use the examples below as a reference point.
In [3]: df
Out[3]:
                                   compound  parameter_measured  endpoint_value
0  C[C@H](NC(=O)N(C)C)c1ccc(OC2CCN(c3ccc(F)c(C(F)(F)F)n3)C2)cc1 (some centres unmarked)                IC50              55
1  CC(=O)N[C@@H](C)c1ccc(O[C@@H]2CCN(c3ccnc(OCC(C)(C)O)c3Cl)C2)cc1                IC50             177
2  CSc1ccc(N2CCC(Oc3ccc([C@H](C)NC(C)=O)cc3)C2)cn1 (some centres unmarked)                IC50            2990
3  Cc1occc1C(=O)N[C@@H](C)c1ccc(OC2CCN(c3ccnc(OC(C)C)c3)C2)cc1 (some centres unmarked)                IC50             921
4  COC(C)(C)COc1nccc(N2CC[C@@H](Oc3ccc([C@H](C)NC(C)=O)cc3)C2)c1Cl                IC50             132

(Q) Report IC50 for `CCCNc1nccc(N2CC[C@@H](Oc3ccc([C@H](C)NC(C)=O)cc3)C2)c1F` please.
(A) 52

(Q) Likewise for `CC(=O)N[C@@H](C)c1ccc(O[C@@H]2CCN(c3ccnc(OCC(F)F)c3Cl)C2)cc1` ?
(A) 79

(Q) Likewise for CC(=O)N[C@@H](C)c1ccc(OC2CCN(c3ccc(OCCC(F)F)cn3)C2)cc1 (some centres unmarked) ?
(A) 107

====

Target: human ACC2 (Homo sapiens (Human), UniProt O00763)
Parameter Measured: pIC50
Give only the number. pIC50 is defined as minus log10 of concentration in molar units.

(Q) Report pIC50 for CC(=O)N[C@@H](C)c1ccc(O[C@@H]2CCN(c3cccc(N4CC=CC4)n3)C2)cc1 [Example 10.44] please.
(A) 6.18

(Q) Likewise for CC(C)Oc1cc(N2CCC(Oc3ccc([C@H](C)NC(=O)C4(C)CC4)cc3)C2)ccn1 (some centres unmarked) [Example 2.21] ?
(A) 6.41

(Q) Likewise for CCC(COC)Oc1cc(N2CC[C@@H](Oc3ccc([C@H](C)NC(C)=O)cc3)C2)ccn1 (some centres unmarked) [Example 9.46] ?
(A) 6.26

(Q) Likewise for CNC(=O)c1cccc(C(=O)N[C@@H](C)c2ccc(OC3CCN(c4ccc(OCC5CC5)cc4)C3)cc2)n1 (some centres unmarked) [Example 2.2] ?
(A) 6.15

(Q) Likewise for CC(C)Oc1cc(N2CCC(Oc3ccc([C@H](C)NC(=O)CC#N)cc3)C2)ccn1 (some centres unmarked) [Example 2.7] ?
(A) 6.41

====

Biological target: human ACC2 (Homo sapiens (Human))
Parameter Measured: IC50 (nM)
Only the number, expressed in nM, is required.

Use the examples below as a reference point.
                                   molecule  parameter_measured  scale_unit  endpoint_value
0  CC(=O)N[C@@H](C)c1ccc(OC2CCN(c3cccc(C4CCC4)n3)C2)cc1 (some centres unmarked)                IC50          nM              89
1  CC(=O)N[C@@H](C)c1ccc(O[C@@H]2CCN(c3ccnc(N4CCCC4)c3Cl)C2)cc1                IC50          nM              47
2  C[C@H](NC(=O)C1(C)CC1)c1ccc(OC2CCN(c3ccnc(N4CCC(F)(F)C4)c3F)C2)cc1 (some centres unmarked)                IC50          nM              72
3  C[C@H](NC(=O)CCC#N)c1ccc(OC2CCN(c3cccc(C(F)(F)F)n3)C2)cc1 (some centres unmarked)                IC50          nM             675
4  CCOc1cc(N2CCC(Oc3ccc([C@H](C)NC(C)=O)cc3)C2)c(F)cn1 (some centres unmarked)                IC50          nM             117

(Q) Report IC50 for `CCCOc1nccc(N2CC[C@@H](Oc3ccc([C@H](C)NC(C)=O)cc3)C2)c1C` please.
(A) 59

(Q) Likewise for CC(=O)N[C@@H](C)c1ccc(OC2CCN(c3ccc(OC(C)C)nc3)C2)cc1 (some centres unmarked) ?
(A) 832

(Q) Likewise for `CCCOc1ccc(N2CC[C@@H](Oc3ccc([C@H](C)NC(=O)c4sc(NC(C)=O)nc4C)cc3)C2)cn1` ?
(A) 149
